// provenance: patent US20250186563A1

- assayRemarks: Sustained reversal of betrixaban-induced anticoagulation in rats
- Assay type: in vivo
- settings: rat, plasma, intravenous, 1 mg/kg/hr, Betrixaban alone (uM), plasma concentration, betrixaban 1.0 mg/kg/hr IV for 30 min, no antidote, 30′
property: concentration at 30 min (µM)
Give the quantity in µM, number only.

Report concentration at 30 min for COc1ccc(NC(=O)c2ccc(C(=N)N(C)C)cc2)c(C(=O)Nc2ccc(Cl)cn2)c1 [betrixaban] please. 0.169

###

- assayRemarks: Sustained reversal of betrixaban-induced anticoagulation in rats
- Type: in vivo
- settings: rat, plasma, intravenous, 1 mg/kg/hr, Betrixaban alone (uM), plasma concentration, betrixaban 1.0 mg/kg/hr IV for 30 min, no antidote, 90′
property: concentration at 90 min (µM)
Report as a plain number; the unit µM is understood.

Which concentration at 90 min reading was recorded for the molecule COc1ccc(NC(=O)c2ccc(C(=N)N(C)C)cc2)c(C(=O)Nc2ccc(Cl)cn2)c1 ? 0.048

###

- assayRemarks: Sustained reversal of betrixaban-induced anticoagulation in rats
- Assay type: in vivo
- settings: rat, plasma, intravenous, Betrixaban + antidote (uM), betrixaban plasma concentration, betrixaban infusion then r-Antidote 5 mg bolus + 5 mg/hr, 60′
property: concentration at 60 min

Entry under review: COc1ccc(NC(=O)c2ccc(C(=N)N(C)C)cc2)c(C(=O)Nc2ccc(Cl)cn2)c1 . Reported concentration at 60 min? 1.88 µM

###

- assayRemarks: Sustained reversal of betrixaban-induced anticoagulation in rats
- Assay type: in vivo
- settings: rat, plasma, intravenous, 1 mg/kg/hr, Betrixaban alone (uM), plasma concentration, betrixaban 1.0 mg/kg/hr IV for 30 min, no antidote, 60′
property: concentration at 60 min (µM)
Number in µM, nothing else.

Sample COc1ccc(NC(=O)c2ccc(C(=N)N(C)C)cc2)c(C(=O)Nc2ccc(Cl)cn2)c1 — what was its concentration at 60 min? 0.045

###

- assayRemarks: Sustained reversal of betrixaban-induced anticoagulation in rats
- Assay type: in vivo
- settings: rat, plasma, intravenous, 1 mg/kg/hr, Betrixaban alone (uM), plasma concentration, betrixaban 1.0 mg/kg/hr IV for 30 min, no antidote, 35′
property: concentration at 35 min (µM)
Express your answer in µM, writing the number without its unit.

GET /values?readout=concentration at 35 min&item= COc1ccc(NC(=O)c2ccc(C(=N)N(C)C)cc2)c(C(=O)Nc2ccc(Cl)cn2)c1 0.062

###

- assayRemarks: Sustained reversal of betrixaban-induced anticoagulation in rats
- Assay type: in vivo
- settings: rat, plasma, intravenous, Betrixaban + antidote (uM), betrixaban plasma concentration, betrixaban infusion then r-Antidote 5 mg bolus + 5 mg/hr, 90′
property: concentration at 90 min (µM)
Field: numeric (µM). Do not append units.

// lookup concentration at 90 min for COc1ccc(NC(=O)c2ccc(C(=N)N(C)C)cc2)c(C(=O)Nc2ccc(Cl)cn2)c1 1.19
